Target: Cytochrome P450 2D6 (Homo sapiens)
Test: Cytochrome panel assay with activity outcomes
Details: recombinant CYP, pro-luciferin dealkylation, luminescence, p450-cyp2d6; series mostly up to 57.1 µM
In all, about 16,000 compounds went through this assay and about 2,600 (16%) were called active. Not shown: some 20% with an inconclusive outcome. Calls come from the whole dose curve; as a rule, active = well fitted curve in the direction sought with a large enough effect; inconclusive = small, poorly fitted or top-dose-only effect, or effect the other way; inactive = no such curve, though single readings can be large or run the other way. Only a sample is shown.
Labels: true (active), false (inactive)

[
  {
    "COMPOUND": "COc1ccccc1CN1CC[C@@]2(CCCN(C(=O)c3cccn3C)C2)C1",
    "CLASS": "true"
  },
  {
    "COMPOUND": "COc1ccc(NC(=O)N2CCC3(CC2)CCN(C(=O)c2cccn2C)CC3)cc1",
    "CLASS": "false"
  },
  {
    "COMPOUND": "C/C(CC(=O)Nc1cc(Cl)ccc1Cl)=N\\NC(N)=S",
    "CLASS": "false"
  },
  {
    "COMPOUND": "CC(=O)c1cc2c(cc1NC(=O)c1c(-c3ccccc3)noc1C)OCO2",
    "CLASS": "false"
  },
  {
    "COMPOUND": "O=c1oc(-c2cccs2)nc2ccc(Br)cc12",
    "CLASS": "false"
  },
  {
    "COMPOUND": "COc1ncnc(NS(=O)(=O)c2ccc(N)cc2)c1OC",
    "CLASS": "false"
  },
  {
    "COMPOUND": "CC1Cc2ccccc2N1Cc1nc2cc(C(F)(F)F)ccc2c(=O)[nH]1 (stereo unspecified)",
    "CLASS": "false"
  },
  {
    "COMPOUND": "CC(=O)Nc1ccc(NC(=O)C/C(C)=N/NC(=O)C(=O)N2CCCC2)cc1",
    "CLASS": "false"
  },
  {
    "COMPOUND": "CN1CCCC2(CCN(C(=O)c3cccn3C)CC2)C1",
    "CLASS": "false"
  },
  {
    "COMPOUND": "COc1ccccc1CN1CCCC2(CCN(C(=O)c3cccn3C)CC2)C1",
    "CLASS": "true"
  },
  {
    "COMPOUND": "COc1ccc(NC(=O)N2CC[C@@]3(CCCN(C(=O)c4cccn4C)C3)C2)cc1",
    "CLASS": "false"
  }
]

* * *

Biological target: Cytochrome P450 2D6 (Homo sapiens)
Assay: Cytochrome panel assay with activity outcomes; for activity, negative = inhibition: % is set by controls: 0 for no effect and ±100 for the full control effect
Details: recombinant CYP, pro-luciferin dealkylation, luminescence, p450-cyp2d6; series mostly up to 57.1 µM
Hit rate of the full screen: of about 16,000 compounds, about 2,600 (16%) were called active. Inconclusive results (about 20%) are left out. Not all results are given here.
# key: entry, value: activity, negative = inhibition

[
  {
    "SMILES": "O=C(O)C12CC3(C(=O)O)CC(C(=O)O)(CC(C(=O)O)(C1)C3=O)C2=O",
    "activity, negative = inhibition": "-4.61% [at 11.4 µM] (inactive)"
  },
  {
    "SMILES": "CO[C@H]1COC(=O)[C@H](C)COC(=O)[C@@H](Cc2ccccc2)NC(=O)C/C=C\\[C@H]1C",
    "activity, negative = inhibition": "3.3% [at 11.4 µM] (inactive)"
  },
  {
    "SMILES": "CC(C)N(Cc1ccccc1)S(=O)(=O)c1n[nH]c(C(C)(C)C)n1",
    "activity, negative = inhibition": "14.9% [at 11.4 µM] (inactive)"
  },
  {
    "SMILES": "CN(C)CCNCCN",
    "activity, negative = inhibition": "8.7% [at 11.4 µM] (inactive)"
  },
  {
    "SMILES": "Cc1cc2c(=O)[nH]c(N)nc2nc1C",
    "activity, negative = inhibition": "14.7% [at 11.4 µM] (inactive)"
  },
  {
    "SMILES": "O=C1[C@H]2[C@H]3[C@H](O)[C@H](O)C/C(=N/OC[C@@H](O)COCc4ccco4)[C@@H]3CC[C@@H]2C(=O)N1Cc1ccc2c(c1)OCO2",
    "activity, negative = inhibition": "0.398% [at 11.4 µM] (inactive)"
  }
]

* * *

Target: Cytochrome P450 2D6 (Homo sapiens) (UniProt P10635)
Sequence (P10635 whole entry, looked up): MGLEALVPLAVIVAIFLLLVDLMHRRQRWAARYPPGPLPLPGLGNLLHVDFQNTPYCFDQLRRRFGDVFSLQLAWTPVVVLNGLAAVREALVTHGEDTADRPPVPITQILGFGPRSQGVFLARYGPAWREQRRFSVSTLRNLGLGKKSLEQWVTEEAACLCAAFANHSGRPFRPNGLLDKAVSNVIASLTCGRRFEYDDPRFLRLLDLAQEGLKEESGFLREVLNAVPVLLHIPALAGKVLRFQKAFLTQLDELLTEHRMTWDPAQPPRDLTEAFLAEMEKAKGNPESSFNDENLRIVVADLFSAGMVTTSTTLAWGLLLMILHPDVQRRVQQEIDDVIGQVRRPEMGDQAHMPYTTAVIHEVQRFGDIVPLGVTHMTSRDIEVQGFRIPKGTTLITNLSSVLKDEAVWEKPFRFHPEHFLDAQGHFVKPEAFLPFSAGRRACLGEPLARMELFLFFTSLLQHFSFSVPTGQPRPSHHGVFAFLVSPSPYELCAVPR
Experiment: Cytochrome panel assay with activity outcomes
Details: recombinant CYP, pro-luciferin dealkylation, luminescence, p450-cyp2d6; series mostly up to 57.1 µM
Screen size: about 16,000 compounds; about 2,600 (16%) were called active. Inconclusive results (about 20%) are left out. The list is a sample of the results.

[
  {
    "MOLECULE": "CCOc1cc2[nH]c(=S)n(CCC(=O)N3CCc4ccccc4C3)c(=O)c2cc1OCC",
    "AC50": "inactive"
  },
  {
    "MOLECULE": "COc1ncc2nc(-c3cc(F)cc(F)c3)c(=O)n(C3CC3)c2n1",
    "AC50": "inactive"
  },
  {
    "MOLECULE": "Cc1cc2ncn(/N=C/c3ccc([N+](=O)[O-])o3)c2cc1C",
    "AC50": "inactive"
  },
  {
    "MOLECULE": "CCC1CCCCN1CCn1c(=S)[nH]c2cc(OC)c(OC)cc2c1=O (stereo unspecified)",
    "AC50": "0.178 µM (active)"
  },
  {
    "MOLECULE": "Cc1ccc(C(=O)Nc2ccc(C(=O)/C=C/c3cccs3)cc2)cc1",
    "AC50": "inactive"
  },
  {
    "MOLECULE": "Cc1ccc(S(N)(=O)=O)cc1NC(=O)/C=C/c1cccs1",
    "AC50": "14.1 µM (active)"
  }
]

* * *

Target: Cytochrome P450 2D6 (Homo sapiens) (UniProt P10635)
Experiment: Cytochrome panel assay with activity outcomes; for activity, negative = inhibition: % is set by controls: 0 for no effect and ±100 for the full control effect
Details: recombinant CYP, pro-luciferin dealkylation, luminescence, p450-cyp2d6; series mostly up to 57.1 µM
In all, about 16,000 compounds went through this assay and about 2,600 (16%) were called active. Another 20% or so got no clear call; they are omitted. A selection follows.
Recorded measurements of activity, negative = inhibition, one per entry

[
  {
    "SMILES": "O=C(O)CSCCc1ccccc1",
    "activity, negative = inhibition": "-0.751% [at 11.4 µM] (inactive)"
  },
  {
    "SMILES": "C[C@]1(O)CC[C@H]2[C@H]3CC=C4N5CCN=C5CC[C@@]4(C)[C@H]3CC[C@@]21C",
    "activity, negative = inhibition": "-4.3% [at 11.4 µM] (inactive)"
  },
  {
    "SMILES": "O=S(=O)(c1cnccc1N1CCN(CCO)CC1)N1CCCC1",
    "activity, negative = inhibition": "10% [at 11.4 µM] (inactive)"
  },
  {
    "SMILES": "N#CC(C#N)=CNCCN1CCN(C=C(C#N)C#N)CC1",
    "activity, negative = inhibition": "5.03% [at 11.4 µM] (inactive)"
  },
  {
    "SMILES": "CC(C)=NOCc1cccc(-c2cc(-c3ccccc3)no2)c1",
    "activity, negative = inhibition": "-6.68% [at 11.4 µM] (inactive)"
  },
  {
    "SMILES": "O=C1O[C@@H]([C@H](O)[C@H](O)[C@H](O)CO)[C@@H](O)[C@@H]1O",
    "activity, negative = inhibition": "7.22% [at 11.4 µM] (inactive)"
  },
  {
    "SMILES": "O=c1ccnc(SCc2ccc(Cl)cc2)[nH]1",
    "activity, negative = inhibition": "6.62% [at 11.4 µM] (inactive)"
  },
  {
    "SMILES": "C[C@H](O/N=C1/[C@H]2O[C@@H]2[C@@H](O)[C@H]2[C@H]1CCn1c(=O)n(-c3ccccc3)c(=O)n12)c1cn([C@H]2COC[C@H]2O)nn1",
    "activity, negative = inhibition": "-1.7% [at 11.4 µM] (inactive)"
  },
  {
    "SMILES": "COc1cccc([C@H](O)Cn2cc(-c3cccc(CON=C(C)C)c3)nn2)c1",
    "activity, negative = inhibition": "-1.23% [at 11.4 µM] (inactive)"
  },
  {
    "SMILES": "O=C(O)CCc1ccc(-c2ccccc2)[nH]1",
    "activity, negative = inhibition": "3.02% [at 11.4 µM] (inactive)"
  }
]

* * *

Target: Cytochrome P450 2D6 (Homo sapiens)
Experiment: Cytochrome panel assay with activity outcomes
Conditions: recombinant CYP, pro-luciferin dealkylation, luminescence, p450-cyp2d6; series mostly up to 57.1 µM
Out of some 16,000 compounds screened, about 2,600 (16%) were called active. Roughly 20% stayed inconclusive and do not appear here. Calls come from the whole dose curve; as a rule, active = well fitted curve in the direction sought with a large enough effect; inconclusive = small, poorly fitted or top-dose-only effect, or effect the other way; inactive = no such curve, though single readings can be large or run the other way. These entries were drawn from the full list.
Possible outcomes: T (active), F (inactive)

[
  {
    "SMILES": "COCCNc1nc(-c2c(C)noc2C)nc2ccccc12",
    "CLASS": "F"
  },
  {
    "SMILES": "COCCNc1nc(-c2ccccc2C)nc2ccccc12",
    "CLASS": "F"
  },
  {
    "SMILES": "COCCNc1nc(-c2ccccc2CN(C)C)nc2ccccc12",
    "CLASS": "T"
  },
  {
    "SMILES": "COc1ccc(C(=O)N2CCC3(CCN(C)CC3)CC2)cc1",
    "CLASS": "F"
  },
  {
    "SMILES": "CCOc1ccc(-c2c[n+](=O)c3c(n2[O-])CCCC3)c(OCC)c1",
    "CLASS": "F"
  },
  {
    "SMILES": "CN(C)Cc1ccccc1-c1nc(NC2CC2)c2ccccc2n1",
    "CLASS": "T"
  },
  {
    "SMILES": "CN(C)Cc1ccccc1-c1nc(NCc2ccccc2)c2ccccc2n1",
    "CLASS": "T"
  },
  {
    "SMILES": "CN1CCN(c2ncc3nc(-c4ccc(F)cc4)c(=O)n(C4CC4)c3n2)CC1",
    "CLASS": "F"
  },
  {
    "SMILES": "CN(C)Cc1ccccc1-c1nc(NCc2cccs2)c2ccccc2n1",
    "CLASS": "T"
  },
  {
    "SMILES": "COc1ccc(C(=O)/C=C(/C)N(C)C)cc1",
    "CLASS": "F"
  },
  {
    "SMILES": "CCCN1C2=NCCCN2c2ccccc21",
    "CLASS": "T"
  },
  {
    "SMILES": "Cc1noc(C)c1-c1nc(NC2CCNCC2)c2ccccc2n1",
    "CLASS": "F"
  }
]
